Every entry's value here was drawn from ChEMBL document CHEMBL5316338.

target: UniProt:P18031; assay: Inhibition of N-terminal His tagged recombinant human PTP1B expressed in Escherichia coli using pNPP as substrate assessed as substrate hydrolysis at 40 umol/L relative to control; details: dose 40.0 µmol/L
Sequence (P18031 whole entry): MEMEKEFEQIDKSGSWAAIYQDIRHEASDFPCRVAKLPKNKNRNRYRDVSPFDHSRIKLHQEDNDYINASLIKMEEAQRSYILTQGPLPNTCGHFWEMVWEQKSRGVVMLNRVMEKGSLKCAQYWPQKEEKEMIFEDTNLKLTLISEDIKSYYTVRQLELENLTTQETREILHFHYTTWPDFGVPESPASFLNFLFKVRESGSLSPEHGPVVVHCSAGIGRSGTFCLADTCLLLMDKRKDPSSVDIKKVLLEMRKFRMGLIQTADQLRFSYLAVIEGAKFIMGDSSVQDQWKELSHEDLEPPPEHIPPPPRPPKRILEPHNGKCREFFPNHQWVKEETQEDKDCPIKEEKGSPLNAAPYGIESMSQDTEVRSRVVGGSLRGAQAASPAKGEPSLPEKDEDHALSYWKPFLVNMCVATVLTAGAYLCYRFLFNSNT
Peptide text beside a SMILES is read from it. * marks the point of attachment. HOOC(CH2)6CO = O=C(O)CCCCCCC(=O)*; Tridecanoyl = CCCCCCCCCCCCC(=O)*; Heptanoyl = CCCCCCC(=O)*
MEASURED_PARAMETER: inhibition

MOLECULE	inhibition
CCCCCCCCCCCCC(=O)N[C@H](C(=O)N[C@@H](C)C(=O)N[C@@H](CCC(N)=O)C(=O)N[C@@H](CCC(=O)O)C(=O)N[C@@H](CC(C)C)C(=O)N[C@@H](CCCNC(=N)N)C(=O)N[C@@H](CCCNC(=N)N)C(=O)N[C@H](C(=O)NCC(=O)N[C@@H](CC(=O)O)C(=O)N[C@@H](CCC(=O)O)C(=O)N[C@@H](Cc1ccccc1)C(=O)O)[C@@H](C)CC)[C@@H](C)CC (Tridecanoyl-IAQELRRIGDEF-OH)	> 50%

Task: Check the records and state inhibition for CC[C@H](C)[C@H](NC(=O)CCCCCCC(=O)O)C(=O)N[C@@H](C)C(=O)N[C@@H](CCC(N)=O)C(=O)N[C@@H](CCC(=O)O)C(=O)N[C@@H](CC(C)C)C(=O)N[C@@H](CCCNC(=N)N)C(=O)N[C@@H](CCCNC(=N)N)C(=O)N[C@H](C(=O)NCC(=O)N[C@@H](CC(=O)O)C(=O)N[C@@H](CCC(=O)O)C(=O)N[C@@H](Cc1ccccc1)C(=O)O)[C@@H](C)CC ({HOOC(CH2)6CO}-IAQELRRIGDEF-OH)
Output: < 50%

Task: Check the records and state inhibition for CCCCCCC(=O)N[C@H](C(=O)N[C@@H](C)C(=O)N[C@@H](CCC(N)=O)C(=O)N[C@@H](CCC(=O)O)C(=O)N[C@@H](CC(C)C)C(=O)N[C@@H](CCCNC(=N)N)C(=O)N[C@@H](CCCNC(=N)N)C(=O)N[C@H](C(=O)NCC(=O)N[C@@H](CC(=O)O)C(=O)N[C@@H](CCC(=O)O)C(=O)N[C@@H](Cc1ccccc1)C(=O)O)[C@@H](C)CC)[C@@H](C)CC (Heptanoyl-IAQELRRIGDEF-OH)
Output: < 50%
